Source listed as a melting point compilation (Tetko et al.; mined from patent text by program, amines drawn as free bases though some values may be those of a salt).

compound	melting point
COC(=O)C1C=CCN2C(=O)C(CCOC3CCCCO3)(Cc3ccccc3)C(=O)N12 (centres undefined)	113 to 114 °C
CNc1ccc(CN2CCN(C(c3ccccc3)c3ccccc3)CC2)cc1[N+](=O)[O-]	121 °C
O=C(O)Cc1coc2cc(OCc3cc(-c4ccc(C(F)(F)F)cc4)on3)ccc12	201 °C
Cc1cc(N)c([N+](=O)[O-])cc1NC(=O)OCCCl	192 °C
Cc1[nH]cnc1Cc1cccc2c1OC(C)(C)OC2	172 to 178 °C
CCCCNc1c2c(nc3c1cnn3CC)CCc1ccccc1C2=O	91 to 93 °C
CC(C)(C)OC(=O)C1C(C#CC(=O)OCC(Cl)(Cl)Cl)C1(C)C (centres undefined)	70 to 71 °C
Cc1nc(Cn2cnc3c2c(=O)[nH]c(=O)n3C)no1	262 to 264 °C
c1cnc2ncncc2c1	249 to 252 °C

* * *

quantity: melting point

record_smiles	quantity	recorded_result
COc1ccc(-c2cc(=O)n(Cc3ccccc3)nc2-c2ccc(OC)c(F)c2)cc1	melting point	137 to 138 °C
CCc1cc2c(=O)n3cc(C#N)ccc3nc2s1	melting point	223 to 224 °C
COC(=O)c1ccc2[nH]c(=O)oc(=O)c2c1	melting point	275 to 278 °C
CS(=O)(=O)c1ccc(-n2cnc3ccc(-c4nnc(C5CC5)o4)cc32)cc1	melting point	215 to 216 °C
COc1ccc(OC(=O)Cl)cc1C12CC3CC(CC(C3)C1)C2	melting point	87 to 89 °C

* * *

quantity: melting point

molecule	recorded_result
CN1CC(c2ccc(OC(F)(F)F)cc2)(c2ccc(F)c(-c3cccnc3F)c2)N=C1N (stereo not drawn)	65 to 70 °C
O=C(c1cccs1)c1cnn2c(-c3cccc(NC(=S)Nc4cccc(-c5ccnc6c(C(=O)c7cccs7)cnn56)c4)c3)ccnc12	151 to 153 °C
Nc1nc2c(c(Nc3ccc(C(F)(F)F)cc3)n1)-c1ccccc1C2	229 to 231 °C

* * *

We begin with a simple list: items and their reported melting point.

molecule	melting point
CCCCCCCCCCCC(=O)OCc1ccccc1-c1nc(-c2cccc(OC)c2)n[nH]1	45 °C
OCCOCCn1c2ccccc2c2ccccc21	80 to 81 °C
COc1ccc(C(O)CN2c3nc(-c4ccncc4)cc(=O)n3CCC2c2ccccc2)cc1 (centres undefined)	150 to 152 °C
O=C(COCc1ccccc1)NC(C(=O)O)c1ccccc1 (centres undefined)	127 to 130 °C
C=CCNCc1noc(-c2ncn3c2CN(C)C(=O)c2c(Cl)cccc2-3)n1	171 to 174 °C
CCOC(=O)C=Cc1cccnc1OCc1ccc(OCc2nc(-c3ccco3)oc2C)c(OC)c1	85 to 87 °C
O=C(O)c1c([N+](=O)[O-])ccc2c1OCO2	166 to 173 °C
CN(C)Cc1ccc(SC2CCN(C(c3ccccc3)(c3ccccc3)c3ccccc3)CC2)cc1	163 °C
CN(C1CCCc2ccc([N+](=O)[O-])cc21)S(C)(=O)=O (centres undefined)	138 to 140 °C
